Entry source: patent US20200017592A1

# measured.on: T1, human IL-36R extracellular domain expressed with a C-terminal myc-myc-hexahistidine tag (hIL-36R-MMH) (human, UniProt Q9HB29 20-337)
# T1 construct: also called Human IL-36R-MMH; REGN2105
# test.description: SPR Biacore T200, mAb captured on anti-hFc, 37C, PBS-T pH 7.4 running buffer
# Lookup of reported 100 nM hIL-36R-MMH Bound (RU) keyed by entry
Please give a number only; it is taken to be in RU.

Below, each entry is followed by its recorded 100 nM hIL-36R-MMH Bound (RU) result.
binder	100 nM hIL-36R-MMH Bound (RU)
H4H14728P (antibody, human IgG4 S228P, kappa, V domains shown, Fully human anti-IL-36R antibody) VH: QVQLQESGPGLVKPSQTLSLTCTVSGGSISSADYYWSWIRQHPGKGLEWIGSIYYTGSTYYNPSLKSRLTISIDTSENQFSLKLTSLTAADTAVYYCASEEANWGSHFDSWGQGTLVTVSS VL: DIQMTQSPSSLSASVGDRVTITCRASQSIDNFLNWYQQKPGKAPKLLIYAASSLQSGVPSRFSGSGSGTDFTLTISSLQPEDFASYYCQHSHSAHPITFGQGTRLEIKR	121
H4H14758P (antibody, human IgG4 S228P, kappa, V domains shown, Fully human anti-IL-36R antibody) VH: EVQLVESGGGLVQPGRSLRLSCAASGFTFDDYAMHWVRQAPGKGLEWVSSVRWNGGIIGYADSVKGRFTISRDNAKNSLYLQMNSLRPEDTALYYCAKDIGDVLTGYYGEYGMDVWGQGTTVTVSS VL: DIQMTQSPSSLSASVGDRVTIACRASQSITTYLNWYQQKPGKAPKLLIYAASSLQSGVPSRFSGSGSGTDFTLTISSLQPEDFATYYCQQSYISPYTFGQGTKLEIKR	126
H4H14731P (antibody, human IgG4 S228P, kappa, V domains shown, Fully human anti-IL-36R antibody) VH: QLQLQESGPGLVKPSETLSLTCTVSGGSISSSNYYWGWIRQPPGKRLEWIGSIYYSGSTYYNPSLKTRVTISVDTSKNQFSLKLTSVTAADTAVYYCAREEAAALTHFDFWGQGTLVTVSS VL: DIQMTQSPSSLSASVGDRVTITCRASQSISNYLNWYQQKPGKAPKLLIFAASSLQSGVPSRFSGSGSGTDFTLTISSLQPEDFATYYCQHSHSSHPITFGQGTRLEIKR	91
H4H14700P2 (antibody, human IgG4 S228P, kappa, V domains shown, Fully human anti-IL-36R antibody) VH: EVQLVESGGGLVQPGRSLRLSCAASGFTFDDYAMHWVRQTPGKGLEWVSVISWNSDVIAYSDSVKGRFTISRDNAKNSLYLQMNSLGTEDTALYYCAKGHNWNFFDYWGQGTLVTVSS VL: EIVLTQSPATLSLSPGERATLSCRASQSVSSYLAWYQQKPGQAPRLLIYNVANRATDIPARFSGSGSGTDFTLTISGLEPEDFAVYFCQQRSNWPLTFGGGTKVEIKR	153

Prompt line: Look up 100 nM hIL-36R-MMH Bound (RU) for this binder: H4H14699P2 (antibody, human IgG4 S228P, kappa, V domains shown, Fully human anti-IL-36R antibody) VH: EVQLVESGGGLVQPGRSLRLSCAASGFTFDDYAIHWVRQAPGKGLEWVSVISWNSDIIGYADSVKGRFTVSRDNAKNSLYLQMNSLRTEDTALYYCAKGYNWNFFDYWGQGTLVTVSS VL: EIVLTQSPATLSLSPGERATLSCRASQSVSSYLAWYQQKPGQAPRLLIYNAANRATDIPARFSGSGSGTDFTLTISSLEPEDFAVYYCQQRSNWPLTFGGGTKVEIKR
Response line: 96
